Test system: SW-620 colon
Procedure Details: NCI tumour cell line growth inhibition, 48 h
Assay Endpoint: TGI

Answered cases to consult:
>>> result("C=C1C(=O)C23CC1C[C@H](OC(C)=O)C2C1(C)C(OC(C)=O)C[C@H](O)C(C)(C)[C@H]1C(O)[C@@H]3OC(C)=O (stereo partly specified)")
"6.14 µM"
>>> result("COC(=O)C(Nc1ccc(OC)cc1)c1ccccc1 (stereo unspecified)")
"> 100 µM"
>>> result("CCCCc1c2c(nc3c1CCC/C3=C\\c1ccccc1)C(=O)C(CN(C)C)CC2 (stereo unspecified)")
"31.5 µM"
>>> result("CC(C)/C=N\\n1c(N)c(C#N)c(C#N)c1C(C)C")
"> 100 µM"
>>> result("COc1ccc2c3ccc4c(c3n(C)c2c1)C(=O)c1ccccc1C4=O")
"> 100 µM"
>>> result("CCCNC(=S)/N=C\\c1c(O)c2ccccc2oc1=O")
"> 100 µM"
>>> result("COc1ccc2[nH]c(Cl)c(/C=C3/C(=O)N(C)c4ccccc43)c2c1")
"> 100 µM"
>>> result("CNC(=O)CCNC(=O)CCC(=O)OC")
"> 100 µM"
>>> result("CCSc1nc(N=Cc2cccs2)c2cn[nH]c2n1")
"> 100 µM"
>>> result("COC(=O)c1nc(NC#N)[nH]c(=O)c1C")
"> 100 µM"

Note: attention shifts to another entry.
// query I would be grateful if you could share the reported TGI for C=CCOCn1ccc(=O)[nH]c1=O .
// result > 100 µM
